Measured values drawn from the Immune Epitope Database (IEDB) for this set.

- system.tested: HLA-A*68:02
- protocol.text: IEDB peptide-MHC binding, purified MHC/competitive/radioactivity; bounds were set here for any values at or beyond the usual limits of such assays
- condition.details: source organism: SARS-CoV1
pIC50: −log10 of the molar value.
// no strictly below 7 in pIC50; yes otherwise

[
  {
    "sequence.entry": "RMVSLVTSFL",
    "system.tested": "HLA-A*68:02",
    "cat": "yes"
  },
  {
    "sequence.entry": "FLAFLLFLVL",
    "system.tested": "HLA-A*68:02",
    "cat": "no"
  },
  {
    "sequence.entry": "FVFNGTSWFI",
    "system.tested": "HLA-A*68:02",
    "cat": "yes"
  },
  {
    "sequence.entry": "IIFWFSLEI",
    "system.tested": "HLA-A*68:02",
    "cat": "no"
  },
  {
    "sequence.entry": "FTYASALWEI",
    "system.tested": "HLA-A*68:02",
    "cat": "yes"
  },
  {
    "sequence.entry": "ITMTTVYHI",
    "system.tested": "HLA-A*68:02",
    "cat": "yes"
  },
  {
    "sequence.entry": "VLWAHGFEL",
    "system.tested": "HLA-A*68:02",
    "cat": "no"
  },
  {
    "sequence.entry": "LAFVVFLLV",
    "system.tested": "HLA-A*68:02",
    "cat": "no"
  },
  {
    "sequence.entry": "FVDEFYAYL",
    "system.tested": "HLA-A*68:02",
    "cat": "yes"
  },
  {
    "sequence.entry": "MVMCGGSLYV",
    "system.tested": "HLA-A*68:02",
    "cat": "yes"
  },
  {
    "sequence.entry": "LMANLAPHLL",
    "system.tested": "HLA-A*68:02",
    "cat": "no"
  },
  {
    "sequence.entry": "LIVAALVFL",
    "system.tested": "HLA-A*68:02",
    "cat": "no"
  },
  {
    "sequence.entry": "YLSSVLLAL",
    "system.tested": "HLA-A*68:02",
    "cat": "yes"
  },
  {
    "sequence.entry": "LVFLWLLWPV",
    "system.tested": "HLA-A*68:02",
    "cat": "yes"
  },
  {
    "sequence.entry": "FLFLAWIML",
    "system.tested": "HLA-A*68:02",
    "cat": "no"
  },
  {
    "sequence.entry": "TLMNVITLV",
    "system.tested": "HLA-A*68:02",
    "cat": "yes"
  },
  {
    "sequence.entry": "LLFNKVTLA",
    "system.tested": "HLA-A*68:02",
    "cat": "no"
  },
  {
    "sequence.entry": "VMCGGSLYV",
    "system.tested": "HLA-A*68:02",
    "cat": "no"
  },
  {
    "sequence.entry": "AIAACAMLLV",
    "system.tested": "HLA-A*68:02",
    "cat": "no"
  },
  {
    "sequence.entry": "TLLCVLAAL",
    "system.tested": "HLA-A*68:02",
    "cat": "no"
  },
  {
    "sequence.entry": "VIADYNYKL",
    "system.tested": "HLA-A*68:02",
    "cat": "no"
  },
  {
    "sequence.entry": "SMWALVISV",
    "system.tested": "HLA-A*68:02",
    "cat": "no"
  },
  {
    "sequence.entry": "AIILASFSA",
    "system.tested": "HLA-A*68:02",
    "cat": "no"
  },
  {
    "sequence.entry": "GALDVSASV",
    "system.tested": "HLA-A*68:02",
    "cat": "yes"
  },
  {
    "sequence.entry": "FLCLFLLPSL",
    "system.tested": "HLA-A*68:02",
    "cat": "no"
  },
  {
    "sequence.entry": "KLIEYSDFA",
    "system.tested": "HLA-A*68:02",
    "cat": "yes"
  },
  {
    "sequence.entry": "FVDGVPFVV",
    "system.tested": "HLA-A*68:02",
    "cat": "no"
  },
  {
    "sequence.entry": "TLLCVLAALV",
    "system.tested": "HLA-A*68:02",
    "cat": "no"
  },
  {
    "sequence.entry": "FLVLIMLII",
    "system.tested": "HLA-A*68:02",
    "cat": "no"
  },
  {
    "sequence.entry": "TLDAANHSI",
    "system.tested": "HLA-A*68:02",
    "cat": "no"
  },
  {
    "sequence.entry": "YMLFTKFFYL",
    "system.tested": "HLA-A*68:02",
    "cat": "yes"
  },
  {
    "sequence.entry": "ITAIYVFCI",
    "system.tested": "HLA-A*68:02",
    "cat": "no"
  },
  {
    "sequence.entry": "SLPSYAAYA",
    "system.tested": "HLA-A*68:02",
    "cat": "no"
  },
  {
    "sequence.entry": "FLNGSCGSV",
    "system.tested": "HLA-A*68:02",
    "cat": "no"
  }
]
